# apparent KD of MS2 coat protein annotations
System: MS2 coat protein
Assay: apparent KD of MS2 coat protein; designed switch direction (-1 OFF switch, 1 ON switch): -1; higher = weaker reporter binding
Details: Eterna round: R95; input ligand: FMN 200 uM
Provide only the numeric value, understood in µM.

Record excerpt, results attached:
| ordered.residues | unit.name | test.result |
| --- | --- | --- |
| GAUCUGACAGGAUAUACAUGAGGAUCACCCAUGUGCGUGCUAGCGAAAGCUAGCGCAGGUAGAAGGGUCAGAUC [Ex3 dot plot directed v4] (puzzle: Exclusion 3) | µM | 0.0144 |
| ACCCAACAUGAGGAUCACCCAUGUCAGGAUAUCCUCGGGAAACCAAAAGAGGAGCCGAGGAGAAGGGACAGAGG [ChP 04-04-2015 #5] (puzzle: Exclusion 1) | µM | 0.124 |
| GAGAACGUAGGAUAUACAUGAGGAUCACCCAUGUGAGGAAGGAGUAGGAAGCGUGGAAGUAGAAGGACGGAGAG [JR_Exclu3_Sub073] (puzzle: Exclusion 3) | µM | 0.0576 |

// query # get_value(readout='apparent KD of MS2 coat protein', item= GAAAAGGUAGGAUAUACGAUAAUAAAGGGUAGAUAAUAAACACAUGAGGAUCACCCAUGUAGAAGGACCAAAAG [salish99_ex2_r3_103] (puzzle: Exclusion 2) )
// result 0.127

// query Can you check AGAUGGCGAGGAUAUACAUGAGGAUCACCCAUGUGAAGAUAUAAAGUGAGGAAGAAAAGUAGAAGGCGCUGUCA [Mat - Exclusion 3 - Mod of Salish D25] (puzzle: Exclusion 3) next?
// result 0.225

----------
Tested on: MS2 coat protein
Test: apparent KD of MS2 coat protein; designed switch direction (-1 OFF switch, 1 ON switch): -1; higher = weaker reporter binding
Settings: input ligand: none
measured.attribute: apparent KD of MS2 coat protein (nM)
Just the number please, in nM, no unit attached.

| ordered.residues | apparent KD of MS2 coat protein (nM) |
| --- | --- |
| CCUCUGUCAGGAUAUCGUGCAUACAACGAAAGUUCUAUGUGCGAGAAGGGACAUGAGGAUCACCCAUGUUUGCG [Omei Ex4 A21] (Eterna round: R97, puzzle: Exclusion 4) | 62.5 |
| UGAGCAUGAGGAUAUACAAGGCGACCGUGAGGUCGAGGGUUACAUGAGGAUCACCCAUGUAGAAGGCAUGUUCU [jl-ex2-4.10] (Eterna round: R97, puzzle: Exclusion 2) | 48.3 |
| GUAAAUCAUGUAGGAUAUGCGUGGCGAAGCUAUGCAGAAGGACAUGAGGAUCACCCAUGUGCUUCCGUCUGAGAACAGACGGAA [Mat - Exclusion NG 1 - Mod of JL - D27] (Eterna round: R96, puzzle: Exclusion NG 1) | 341 |
| UAUUUAAGAGGAUAUACAUGAGGAUCACCCAUGUAUAUUAAAAUACAUGAUUUUUUAUGUAGAAGGCUUGGGUA [-21.5, -18.3 kcal, 35% A] (Eterna round: R97, puzzle: Exclusion 3) | 16.9 |
| AAUCAGUGUGUGAGGAUAUUGGUGGAAUGACUUAUUAAGAAGGCACAUGAGGAUCACCCAUGUGGGAAGUCACG [JR_BMEx4_Sub016] (Eterna round: R97, puzzle: Brourd's mod of Exclusion 4) | 12.8 |

// query So what does the record say about apparent KD of MS2 coat protein for AGCCAUCGUGUGAGGAUAUCGAUAAGUUCGAGUUUCGAGAAGGCACAUGAGGAUCACCCAUGUCGUGAAAGAAA [BmEX4 A.28] (Eterna round: R97, puzzle: Brourd's mod of Exclusion 4) ?
// result 244

// query Here is the next sequence: CGGUAGUAUGUAGGAUAUCGGUCAGUUUCUGAUCGAGAAGGACAUGAGGAUCACCCAUGUAAAACGACCGGUUUCUGGUUGCCG [JL ENG1 3.55] (Eterna round: R96, puzzle: Exclusion NG 1)
// result 15.6

// query One more sequence: ACUUACUGAGGAUAUACAUAGAUUUACAUGAGGAUCACCCAUGUUCCUCUAAGUAUAUAUGUAGAAGGCAGAAGAU [Mat - Exclusion 5 - JL Mod - D39] (Eterna round: R97, puzzle: Exclusion 5)
// result 116

// query Ok, now GGGUGACAGUUAGGAUAUCUUAGCACGCCGUAGAGAGAAGGAACAUGAGGAUCACCCAUGUUGUAGUGCCUCCGGCACUGCUAG [Zaquata] (Eterna round: R96, puzzle: Exclusion NG 1)
// result 43.5

Where do the numbers come from? From the supplement of paper PMC9170038.
